tested on: Aspergillus flavus; test: Antifungal activity against Aspergillus flavus after 16 to 18 hrs by serial dilution method; type: functional; conditions: Aspergillus flavus
Readings of MIC for the listed molecules
quantity name: MIC (µg/mL)

> print(dat)
                                    molecule  quantity.name  endpoint.value
 1  Cc1ccc(OCc2ccccc2-c2nnc(-c3cc(C)cc(C)c3)o2)cc1            MIC            12.5
 2  Cc1cccc(OCc2ccccc2-c2nnc(SCc3ccc(Cl)cc3Cl)o2)c1            MIC            12.5
 3  Cc1cccc(OCc2ccccc2-c2nnc(SCc3ccccc3)o2)c1            MIC              25
 4  Cc1cccc(CSc2nnc(-c3ccccc3COc3ccc(Cl)cc3)o2)c1            MIC            12.5
 5  Cc1cc(C2CCCCC2)n(O)c(=O)c1.NCCO [CICLOPIROX OLAMINE]            MIC            3.12
 6  Cc1ccc(OCc2ccccc2-c2nn(CNc3ccc(Cl)cc3C(=O)C(F)(F)F)c(=S)o2)cc1            MIC              25
 7  Cc1ccccc1OCc1ccccc1-c1nnc(SCc2ccc(Cl)cc2)o1            MIC            12.5
 8  Fc1ccccc1-c1nnc(-c2ccccc2COc2ccc(Cl)cc2)o1            MIC            6.25
 9  Cc1ccccc1OCc1ccccc1-c1nnc(-c2cccc3ncccc23)o1            MIC              25
10  Cc1ccc(OCc2ccccc2-c2nnc(-c3ccccc3F)o2)cc1            MIC            6.25
